- target_desc: c-kit (Homo sapiens, UniProt P10721)
- Construct: MO7e (human megakaryocytic leukemia cell line) which had been arrested for 20 hr; endogenous in cells; host or cells: MO7e human megakaryocytic leukemia cell line
- Sequence (P10721 26-976): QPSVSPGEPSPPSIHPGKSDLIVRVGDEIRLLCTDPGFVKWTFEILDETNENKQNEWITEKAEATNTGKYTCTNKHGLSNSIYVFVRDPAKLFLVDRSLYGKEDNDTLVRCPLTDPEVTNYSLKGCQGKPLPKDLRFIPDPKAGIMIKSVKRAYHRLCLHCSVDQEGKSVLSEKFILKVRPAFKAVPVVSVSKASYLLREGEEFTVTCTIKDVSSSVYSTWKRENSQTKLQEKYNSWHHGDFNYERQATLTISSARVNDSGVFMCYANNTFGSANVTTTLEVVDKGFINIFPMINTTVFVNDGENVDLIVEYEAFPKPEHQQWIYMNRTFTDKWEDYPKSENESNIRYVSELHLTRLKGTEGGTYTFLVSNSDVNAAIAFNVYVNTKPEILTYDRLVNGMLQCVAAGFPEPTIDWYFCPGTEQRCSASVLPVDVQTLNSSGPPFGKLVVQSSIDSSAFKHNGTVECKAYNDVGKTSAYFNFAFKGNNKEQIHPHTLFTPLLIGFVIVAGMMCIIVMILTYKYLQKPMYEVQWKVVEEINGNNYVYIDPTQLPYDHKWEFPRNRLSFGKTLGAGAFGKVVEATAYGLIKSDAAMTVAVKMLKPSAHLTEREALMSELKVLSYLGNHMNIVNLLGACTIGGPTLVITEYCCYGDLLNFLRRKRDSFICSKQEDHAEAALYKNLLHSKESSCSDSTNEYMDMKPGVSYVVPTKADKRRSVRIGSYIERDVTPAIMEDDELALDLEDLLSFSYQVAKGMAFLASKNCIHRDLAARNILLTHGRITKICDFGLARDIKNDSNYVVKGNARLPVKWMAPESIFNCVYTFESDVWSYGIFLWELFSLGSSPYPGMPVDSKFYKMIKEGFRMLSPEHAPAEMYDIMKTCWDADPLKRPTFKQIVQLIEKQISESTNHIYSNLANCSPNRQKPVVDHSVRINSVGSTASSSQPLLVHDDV
- procedure_summary: Inhibitory activity against c-kit autophosphorylation (MO7e cells, h-SCF)
- Type: cell-based
- experimental_parameters: MO7e cells, h-SCF stimulation; read-out: c-kit IC50
// reported pIC50 per item
Field pIC50 (float): negative decimal logarithm of the concentration in molar.

Consider the worked cases shown below.
# molecule, result_number
measured = [
    ("CCCC(C)C(=O)NC(=S)Nc1ccc(Oc2ccnc3cc(OC)c(OC)cc23)c(Cl)c1 (stereo not drawn)", 6.15),
    ("COc1cc2nccc(Oc3ccc(NCCOc4ccccc4Cl)cc3)c2cc1OC", 7.15),
    ("COc1cc2nccc(Oc3ccc(SCCOc4ccccc4C(C)C)cc3)c2cc1OC", 6.74),
    ("COc1cc2nccc(Oc3ccc(NC(=S)NC(=O)CC4CCCCC4)cc3)c2cc1OC", 6.94),
    ("COc1cc2ncnc(Oc3ccc(NC(=S)NC(=O)C4(c5ccccc5)CC4)cc3)c2cc1OC", 6.28),
]

Entry COc1cc2ncnc(Oc3ccc(NC(=S)NC(=O)CCCCl)cc3)c2cc1OC has what pIC50?
6.39

Entry COc1cc2nccc(Oc3ccc(NC(=S)NC(=O)c4cccc(Br)c4)cc3F)c2cc1OC has what pIC50?
6.85

Entry COc1cc2nccc(Oc3ccc(SCCOc4ccccc4Cl)cc3)c2cc1OC has what pIC50?
6.67

Entry COc1cc2nccc(Oc3ccc(SCCCOc4cccc(C)c4)cc3)c2cc1OC has what pIC50?
6.93

Entry COc1cc2nccc(Oc3ccc(NC(=S)NC(=O)CCC4CCCC4)cc3)c2cc1OC has what pIC50?
6.72

###

- target_desc: PDGF-Ra (Homo sapiens, UniProt P16234)
- Construct: host or cells: G-292 human osteosarcoma cells
- Sequence (P16234 24-1089): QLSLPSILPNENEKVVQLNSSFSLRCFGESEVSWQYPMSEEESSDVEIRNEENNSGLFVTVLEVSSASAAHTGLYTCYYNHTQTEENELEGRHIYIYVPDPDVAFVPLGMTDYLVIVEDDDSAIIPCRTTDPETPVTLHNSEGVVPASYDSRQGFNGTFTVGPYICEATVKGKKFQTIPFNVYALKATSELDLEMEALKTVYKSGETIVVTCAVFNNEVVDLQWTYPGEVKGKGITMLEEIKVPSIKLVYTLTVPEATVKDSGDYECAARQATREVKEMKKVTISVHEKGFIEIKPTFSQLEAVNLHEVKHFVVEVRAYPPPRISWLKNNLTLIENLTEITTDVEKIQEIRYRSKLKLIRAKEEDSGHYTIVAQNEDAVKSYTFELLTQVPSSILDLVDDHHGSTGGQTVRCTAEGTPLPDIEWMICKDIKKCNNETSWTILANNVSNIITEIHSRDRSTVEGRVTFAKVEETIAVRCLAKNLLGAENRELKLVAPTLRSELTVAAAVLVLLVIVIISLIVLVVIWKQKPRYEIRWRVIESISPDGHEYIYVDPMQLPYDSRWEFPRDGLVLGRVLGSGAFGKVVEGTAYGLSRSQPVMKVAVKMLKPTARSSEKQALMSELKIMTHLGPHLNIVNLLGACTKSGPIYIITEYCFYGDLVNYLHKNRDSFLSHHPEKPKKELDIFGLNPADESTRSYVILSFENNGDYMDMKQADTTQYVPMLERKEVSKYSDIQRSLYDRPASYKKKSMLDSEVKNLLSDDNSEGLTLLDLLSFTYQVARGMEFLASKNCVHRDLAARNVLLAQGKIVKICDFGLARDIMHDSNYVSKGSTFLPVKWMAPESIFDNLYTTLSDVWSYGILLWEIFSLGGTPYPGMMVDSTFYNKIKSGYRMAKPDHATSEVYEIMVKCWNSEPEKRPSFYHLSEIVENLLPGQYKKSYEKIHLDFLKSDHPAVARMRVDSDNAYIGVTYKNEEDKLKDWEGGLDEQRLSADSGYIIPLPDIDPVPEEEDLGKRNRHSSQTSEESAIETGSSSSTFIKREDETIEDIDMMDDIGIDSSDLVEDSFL
- procedure_summary: Inhibitory activity against PDGF-Ra phosphorylation by PDGF-AA stimulation using G292
- Assay type: cell-based
- experimental_parameters: Pharmacological Test Example 1; > means inhibition at indicated concentration not more than 50%, < and << not less than 50%; read-out: PDGF (E) IC50
- Method: Measurement of Inhibitory Activity Against PDGF-Ra Phosphorylation by PDGF-AA Stimulation Using G292 […] This solubilized cell solution was transferred to a 96-well plate coated with aniti-phosphotyrosine antibody PY-20, and a reaction was allowed to proceed at 4° C. overnight. […] Color development was carried out using a color development kit for peroxidase (Sumitomo Bakelite Co., Ltd.), and the absorbance was measured at 450 nm.
pIC50: −log10 of the molar value.
// reported pIC50 per item

Entry COc1cc2nccc(Oc3cc(C)c(NC(=O)OC(C)c4cccc(OC(F)(F)F)c4)cc3C)c2cc1OC (stereo not shown) has what pIC50?
< 7.00

###

// reported pIC50 per item
- target_desc: PDGF-Ra (Homo sapiens)
- Construct: host or cells: G-292 human osteosarcoma cells
- procedure_summary: Inhibitory activity against PDGF-Ra phosphorylation by PDGF-AA stimulation using G292
- Assay type: cell-based
- experimental_parameters: > means inhibition at indicated concentration not more than 50%, < and << not less than 50%; read-out: PDGF (E) IC50
pIC50: −log10 of the molar value.

Consider the worked cases shown below.
# compound, measurement_name, result
rows = [
    ("CCN(CCNC(=O)Nc1ccc(Oc2ncnc3cc(OC)c(OC)cc23)cc1)c1cccc(C)c1", "pIC50", "> 8.00"),
    ("COc1cc2ncnc(Oc3ccc(OCC(=O)N4CCC(N5CCCCC5)CC4)cc3)c2cc1OC", "pIC50", "< 7.00"),
    ("CCN(C(=S)NC(=O)C1CC1c1ccccc1)c1ccc(Oc2ccnc3cc(OC)c(OC)cc23)cc1 (centres unmarked)", "pIC50", "< 7.00"),
    ("CCCC(CCN1CCCCC1)OC(=O)Nc1ccc(Oc2ncnc3cc(OC)c(OC)cc23)cc1 (centres unmarked)", "pIC50", "< 7.00"),
]

Entry CCCCCCOC(=O)Nc1ccc(Oc2ncnc3cc(OC)c(OC)cc23)cc1[N+](=O)[O-] has what pIC50?
7.59

Entry CCN(CCNC(=O)Nc1ccc(Oc2ccnc3cc(OC)c(OC)cc23)cc1)c1cccc(C)c1 has what pIC50?
> 8.00

Entry COc1cc2ncnc(Oc3ccc(NC(=S)NC(=O)CCc4ccccc4C)cc3)c2cc1OC has what pIC50?
> 8.00

Entry COc1cc2nccc(Oc3ccc(NCCOc4cccc(C)c4)cc3C)c2cc1OC has what pIC50?
7.72

Entry COc1cc2nccc(Oc3ccc(NC(=O)NCCN(C(C)C)C(C)C)c([N+](=O)[O-])c3)c2cc1OC has what pIC50?
7.72

Entry CCCCN(CCCC)CCCNC(=S)Nc1ccc(Oc2ccnc3cc(OC)c(OC)cc23)c(C)c1C has what pIC50?
< 7.00

Entry COc1cc2ncnc(Oc3ccc(NC(=O)NN4CCCCC4)c([N+](=O)[O-])c3)c2cc1OC has what pIC50?
< 7.00

Where do the numbers come from? From patent US7135466B2.
